Reference for the values: the supplement of paper PMC7125110

B1: glmS ribozyme (parent)
chain: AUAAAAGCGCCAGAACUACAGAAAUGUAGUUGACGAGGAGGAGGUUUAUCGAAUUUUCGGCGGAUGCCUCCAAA

Variants of: B1
test.protocol: KM; higher = weaker cofactor use; RNA array
particulars: with glucosamine-6-phosphate
For each of the variants below, state its KM.
Remember to quote the unit after the number.

G40U A42C :: 2280 µM

Hey, quick one: what's KM for each of these?
1. A64G C71U
2. G13U U55G
3. A6U U56G
4. U65C C70U
5. U46G U54G
6. C16G U46A

A.
1: 2040 µM; 2: 3830 µM; 3: 1090 µM; 4: 2930 µM; 5: 3110 µM; 6: 676 µM

Can you give me KM for all of these, one by one?
1. U54G
2. G37U U54C
3. A52C U65G
4. A48G U56G
5. U47C U65G
6. G40U U47C

A.
1: 1870 µM; 2: 2230 µM; 3: 197 µM; 4: 696 µM; 5: 3840 µM; 6: 2010 µM
